Numbers sourced from ChEMBL document CHEMBL5058577.

// Population Apoptotic (%) lookup, one value per entry
Test system: U2OS
ASSAY PROCEDURE: Multiplex assay against U2OS
Format: toxicity, cell-based
MEASUREMENT SETUP: human, 24 h, 10 µM, compound concentration 10 uM, replicate 1
Please state the figure in %; there is no need to write the unit.

Example compounds with recorded Population Apoptotic (%):
>>> result("C=CCN1C[C@H](C(=O)N(CCCN(C)C)C(=O)NCC)C[C@@H]2c3cccc4[nH]cc(c34)C[C@H]21")
65
>>> result("CC(C)(C)c1ccc(CSc2cnn(C(C)(C)C)c(=O)c2Cl)cc1")
80
>>> result("CC(C)(O)C(=O)N1CCN(c2ccc(C(F)(F)F)c(C3=C(c4c[nH]c5ccccc45)C(=O)NC3=O)c2)CC1")
87
>>> result("COCCn1c(C)c(C)s/c1=N\\C(=O)C1C(C)(C)C1(C)C")
80
>>> result("O=C(O)CCC/C=C\\CC1C(O)CC(O)C1/C=C/C(O)COc1cccc(Cl)c1 (stereo not given)")
90
>>> result("COc1ccc2c(c1OCc1ccccc1)C[C@@H](C(=O)O)N(C(=O)C(c1ccccc1)c1ccccc1)C2")
83

# input Would you mind telling me what Population Apoptotic (%) value was observed for COc1cc2nc(N3CCN(C(=O)c4ccco4)CC3)nc(N)c2cc1OC.Cl [PRAZOSIN HYDROCHLORIDE] ?
# output 78

# input Would you mind telling me what Population Apoptotic (%) value was observed for CN1CCN2c3ccccc3Cc3ccccc3C2C1.Cl (stereo not given) [MIANSERIN HYDROCHLORIDE] ?
# output 69

# input Would you mind telling me what Population Apoptotic (%) value was observed for `Cn1cc(C(=O)OCC2CCN(CCNS(C)(=O)=O)CC2)c2ccccc21` ?
# output 92

* * *

Tested on: U2OS
ASSAY PROCEDURE: Multiplex assay against U2OS
Format: toxicity, cell-based
MEASUREMENT SETUP: human, 48 h, 1 µM, compound concentration 1 uM, replicate 1
Non-standard residues stand in square brackets, D forms with d. Residues, ends and D or L forms follow the SMILES beside them.
// Population Membrane Permeable-Phenotype (%) lookup, one value per entry
Please state the figure in %; there is no need to write the unit.

Example molecules with recorded Population Membrane Permeable-Phenotype (%):
>>> result("CCn1c(-c2nc3cc(C(=O)N4CCCC(N)C4)ccc3n2C)cc2ccccc21.Cl (stereo not drawn)")
8
>>> result("COc1cc(OC2CCN(C(C)=O)CC2)ccc1C(=O)N1CCC(N2C(=O)OCc3ccccc32)CC1")
3
>>> result("C[C@H](NC(=O)CNC(=O)c1cccc(Cl)c1)c1ccccc1")
6

# input Would you mind telling me what Population Membrane Permeable-Phenotype (%) value was observed for `Cc1cc(=O)n(C)c2cc(N3C(=O)CC[C@H](NS(=O)(=O)CC(C)C)[C@H]3c3ccc(Cl)cc3)ccc12` ?
# output 4

# input Would you mind telling me what Population Membrane Permeable-Phenotype (%) value was observed for `O=c1ccc2ccc(OCCCCN3CCN(c4cccc5sccc45)CC3)cc2[nH]1` ?
# output 9

# input Would you mind telling me what Population Membrane Permeable-Phenotype (%) value was observed for `COC(c1ccccc1)(c1ccccc1)[C@H](Oc1nc(C)cc(C)n1)C(=O)O` ?
# output 2

# input Would you mind telling me what Population Membrane Permeable-Phenotype (%) value was observed for CN(C)C/C=C/C(=O)Nc1ccc(C(=O)N2CCCC(Nc3ncc(Cl)c(-c4c[nH]c5ccccc45)n3)C2)cc1 (stereo not drawn) ?
# output 10

# input Would you mind telling me what Population Membrane Permeable-Phenotype (%) value was observed for COc1cc2nc(N3CCN(C(=O)c4ccco4)CC3)nc(N)c2cc1OC.Cl [PRAZOSIN HYDROCHLORIDE] ?
# output 6

# input Would you mind telling me what Population Membrane Permeable-Phenotype (%) value was observed for `C[C@@H]1CC(=O)Nc2cccc(-c3ccc4c(c3)c(-c3cnn(C)c3)nn4C)c2N1` ?
# output 4

# input Would you mind telling me what Population Membrane Permeable-Phenotype (%) value was observed for `Nc1nc(-c2ccco2)c2cnn(Cc3ccccc3F)c2n1` ?
# output 2

# input Would you mind telling me what Population Membrane Permeable-Phenotype (%) value was observed for `Cc1cc(NC(=O)NCCN2CCC(O)(Cc3ccccc3)CC2)c2ccccc2n1` ?
# output 5

# input Would you mind telling me what Population Membrane Permeable-Phenotype (%) value was observed for `COCCn1c(C)c(C)s/c1=N\C(=O)C1C(C)(C)C1(C)C` ?
# output 5

# input Would you mind telling me what Population Membrane Permeable-Phenotype (%) value was observed for `CC(C)(O)C(=O)N1CCN(c2ccc(C(F)(F)F)c(C3=C(c4c[nH]c5ccccc45)C(=O)NC3=O)c2)CC1` ?
# output 6

# input Would you mind telling me what Population Membrane Permeable-Phenotype (%) value was observed for `CN1CCC(C(=O)c2cccc(NC(=O)c3c(F)cc(F)cc3F)n2)CC1` ?
# output 4

# input Would you mind telling me what Population Membrane Permeable-Phenotype (%) value was observed for `CN(C)C(=O)Cn1cc(-c2ccc(-c3nnc4ccccn34)cc2)cn1` ?
# output 4

# input Would you mind telling me what Population Membrane Permeable-Phenotype (%) value was observed for Cc1ccc(OCC(O)C(C)NC(C)C)c2c1CCC2.Cl (stereo not drawn) ?
# output 6

# input Would you mind telling me what Population Membrane Permeable-Phenotype (%) value was observed for CC(C)C[C@@H]1NC(=O)[C@@H](C(C)C)NC(=O)[C@@H]2CCCN2C(=O)[C@@H](CC(=O)O)NC(=O)[C@@H](Cc2c[nH]c3ccccc23)NC1=O [BQ-123] (cyclo(L[dW][dD]P[dV])) ?
# output 3

# input Would you mind telling me what Population Membrane Permeable-Phenotype (%) value was observed for `CC(C)(C)c1ccc(CSc2cnn(C(C)(C)C)c(=O)c2Cl)cc1` ?
# output 6

* * *

Tested on: U2OS
ASSAY PROCEDURE: Multiplex assay against U2OS
Assay type: toxicity, cell-based
MEASUREMENT SETUP: human, 12 h, 10 µM, compound concentration 10 uM, replicate 2
Non-standard residues stand in square brackets, D forms with d. Residues, ends and D or L forms follow the SMILES beside them.
RESULT TYPE: Population Healthy Nuclei (%)
Please state the figure in %; there is no need to write the unit.

Example compounds with recorded Population Healthy Nuclei (%):
>>> result("COc1cc2nc(N3CCN(C(=O)c4ccco4)CC3)nc(N)c2cc1OC.Cl [PRAZOSIN HYDROCHLORIDE]")
74
>>> result("Cn1cc(C(=O)OCC2CCN(CCNS(C)(=O)=O)CC2)c2ccccc21")
76
>>> result("COc1cc(C(=O)N2CC[C@@H](O)[C@@H](N)C2)cc2nc(-c3cc4ccccc4n3CC3CC3)n(C)c12.Cl")
61
>>> result("N[C@](CC1c2ccccc2Oc2ccccc21)(C(=O)O)[C@H]1C[C@@H]1C(=O)O")
76
>>> result("O=C(O)CCC/C=C\\CC1C(O)CC(O)C1/C=C/C(O)COc1cccc(Cl)c1 (stereo not drawn)")
81

# input Would you mind telling me what Population Healthy Nuclei (%) value was observed for CC(C)C[C@@H]1NC(=O)[C@@H](C(C)C)NC(=O)[C@@H]2CCCN2C(=O)[C@@H](CC(=O)O)NC(=O)[C@@H](Cc2c[nH]c3ccccc23)NC1=O [BQ-123] (cyclo(L[dW][dD]P[dV])) ?
# output 70

# input Would you mind telling me what Population Healthy Nuclei (%) value was observed for `O=c1nc2[nH]c3ccccc3nc-2c(=O)[nH]1` ?
# output 78

# input Would you mind telling me what Population Healthy Nuclei (%) value was observed for `COc1cc2nc(N3CCN(C(=O)COc4c(OC)cccc4C(C)C)CC3)nc(N)c2cc1OC.Cl.Cl` ?
# output 48

* * *

// Population Mitotic Cells (%) lookup, one value per entry
Test system: U2OS
ASSAY PROCEDURE: Multiplex assay against U2OS
Format: toxicity, cell-based
MEASUREMENT SETUP: human, 12 h, 1 µM, compound concentration 1 uM, replicate 2
Please state the figure in %; there is no need to write the unit.

>>> result("S=C(NCCCc1c[nH]cn1)NCCCN(Cc1ccc(Cl)c(Cl)c1)c1ccc(Br)cn1")
20
>>> result("COc1cc2nc(N3CCN(C(=O)c4ccco4)CC3)nc(N)c2cc1OC.Cl [PRAZOSIN HYDROCHLORIDE]")
5
>>> result("CCCCCCNC(=O)Nc1ccc(S(=O)(=O)Nc2ccc(CCNC[C@H](O)COc3ccc(O)cc3)cc2)cc1 [L-755507]")
0

# input Would you mind telling me what Population Mitotic Cells (%) value was observed for `COc1cc(C(=O)N2CC[C@@H](O)[C@@H](N)C2)cc2nc(-c3cc4ccccc4n3CC3CC3)n(C)c12.Cl` ?
# output 25

# input Would you mind telling me what Population Mitotic Cells (%) value was observed for CSc1nc(NC2CCCC2)c([N+](=O)[O-])c(NC2CCCC2)n1 [GS-39783] ?
# output 20
